Taken from patent US20240299557A1.

target: HBV P protein (DNA polymerase) (Hepatitis B virus genotype D subtype ayw, UniProt P03156); construct: expressed in transfected cells; host or cells: Huh7-LgBiT cells transduced with pLVX-HBP-Puro lentivirus (Huh7-HBP); assay: Degradation of HBV P protein (DNA polymerase) in Huh7-HBP cell line (Nano-Glo HiBiT/LgBiT luminescence); assay type: cell-based; details: 300 nM, read-out: Degradation activity of DNA polymerase at different concentrations of compounds
Sequence (P03156 whole entry): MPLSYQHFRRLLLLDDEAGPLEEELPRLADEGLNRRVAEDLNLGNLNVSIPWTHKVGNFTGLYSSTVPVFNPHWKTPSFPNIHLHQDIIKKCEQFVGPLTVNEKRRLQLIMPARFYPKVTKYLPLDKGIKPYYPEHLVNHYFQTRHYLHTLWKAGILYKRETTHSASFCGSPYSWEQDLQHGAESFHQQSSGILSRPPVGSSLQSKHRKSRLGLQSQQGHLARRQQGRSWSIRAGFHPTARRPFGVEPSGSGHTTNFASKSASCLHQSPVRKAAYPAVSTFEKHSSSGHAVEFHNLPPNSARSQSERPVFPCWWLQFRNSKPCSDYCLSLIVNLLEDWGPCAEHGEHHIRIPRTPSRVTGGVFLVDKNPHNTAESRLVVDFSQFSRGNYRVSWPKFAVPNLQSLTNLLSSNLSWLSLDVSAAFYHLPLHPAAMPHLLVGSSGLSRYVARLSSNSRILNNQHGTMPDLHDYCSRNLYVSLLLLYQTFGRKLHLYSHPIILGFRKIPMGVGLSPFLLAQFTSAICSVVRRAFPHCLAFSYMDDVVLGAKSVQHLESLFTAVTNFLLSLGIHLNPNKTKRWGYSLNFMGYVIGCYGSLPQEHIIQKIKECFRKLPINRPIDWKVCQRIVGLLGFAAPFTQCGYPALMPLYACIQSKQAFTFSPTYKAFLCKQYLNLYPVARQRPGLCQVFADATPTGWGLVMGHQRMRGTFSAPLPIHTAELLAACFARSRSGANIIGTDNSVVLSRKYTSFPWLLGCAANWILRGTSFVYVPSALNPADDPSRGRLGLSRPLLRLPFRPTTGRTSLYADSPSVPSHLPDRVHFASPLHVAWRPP
Below, each entry is listed with its recorded inhibition at 0.3 µM.

[
  {
    "SMILES CODE": "C=C1[C@H](CO)[C@H](O)C[C@@H]1n1cnc2c(OCCCCCCCCCC(=O)N[C@H](C(=O)N3C[C@H](O)C[C@H]3C(=O)NCc3ccc(-c4scnc4C)cc3)C(C)(C)C)nc(N)nc21",
    "TARGET OR TEST SYSTEM": "HBV P protein (DNA polymerase) (Hepatitis B virus genotype D subtype ayw, UniProt P03156)",
    "inhibition at 0.3 µM": "30 to 70%"
  },
  {
    "SMILES CODE": "C=C1[C@H](CNC(=O)CN2CCC(CCCC(=O)N[C@H](C(=O)N3C[C@H](O)C[C@H]3C(=O)NCc3ccc(-c4scnc4C)cc3)C(C)(C)C)CC2)[C@H](O)C[C@@H]1n1cnc2c(=O)[nH]c(N)nc21",
    "TARGET OR TEST SYSTEM": "HBV P protein (DNA polymerase) (Hepatitis B virus genotype D subtype ayw, UniProt P03156)",
    "inhibition at 0.3 µM": "< 30%"
  },
  {
    "SMILES CODE": "C=C1[C@H](CO)[C@H](O)C[C@@H]1n1cnc2c(OCCOCCOCCCC(=O)N[C@H](C(=O)N3C[C@H](O)C[C@H]3C(=O)NCc3ccc(-c4scnc4C)cc3)C(C)(C)C)nc(N)nc21",
    "TARGET OR TEST SYSTEM": "HBV P protein (DNA polymerase) (Hepatitis B virus genotype D subtype ayw, UniProt P03156)",
    "inhibition at 0.3 µM": "30 to 70%"
  },
  {
    "SMILES CODE": "C=C1[C@H](CNC(=O)CCCCCCCCC(=O)N[C@H](C(=O)N2C[C@H](O)C[C@H]2C(=O)NCc2ccc(-c3scnc3C)cc2)C(C)(C)C)[C@H](O)C[C@@H]1n1cnc2c(=O)[nH]c(N)nc21",
    "TARGET OR TEST SYSTEM": "HBV P protein (DNA polymerase) (Hepatitis B virus genotype D subtype ayw, UniProt P03156)",
    "inhibition at 0.3 µM": "30 to 70%"
  },
  {
    "SMILES CODE": "C=C1[C@H](CO)[C@H](O)C[C@@H]1n1cnc2c(OCCN3CCC(CCCC(=O)N[C@H](C(=O)N4C[C@H](O)C[C@H]4C(=O)NCc4ccc(-c5scnc5C)cc4)C(C)(C)C)CC3)nc(N)nc21",
    "TARGET OR TEST SYSTEM": "HBV P protein (DNA polymerase) (Hepatitis B virus genotype D subtype ayw, UniProt P03156)",
    "inhibition at 0.3 µM": "< 30%"
  },
  {
    "SMILES CODE": "C=C1[C@H](CNC(=O)CN2CCN(CCCC(=O)N[C@H](C(=O)N3C[C@H](O)C[C@H]3C(=O)NCc3ccc(-c4scnc4C)cc3)C(C)(C)C)CC2)[C@H](O)C[C@@H]1n1cnc2c(=O)[nH]c(N)nc21",
    "TARGET OR TEST SYSTEM": "HBV P protein (DNA polymerase) (Hepatitis B virus genotype D subtype ayw, UniProt P03156)",
    "inhibition at 0.3 µM": "< 30%"
  },
  {
    "SMILES CODE": "C=C1[C@H](CO)[C@H](O)C[C@@H]1n1cnc2c(OCCN3CCN(CCCC(=O)N[C@H](C(=O)N4C[C@H](O)C[C@H]4C(=O)NCc4ccc(-c5scnc5C)cc4)C(C)(C)C)CC3)nc(N)nc21",
    "TARGET OR TEST SYSTEM": "HBV P protein (DNA polymerase) (Hepatitis B virus genotype D subtype ayw, UniProt P03156)",
    "inhibition at 0.3 µM": "< 30%"
  }
]

----------
tested on: HBV; experiment: Inhibition of HBV virus replication in HepAD38 cells (HBV DNA level in supernatant); format: cell-based, hepatitis B virus; settings: Hepatitis B virus; 10000 nM; HepAD38 cell line; read-out: Antiviral activity of the compound at different concentrations
Below, each entry is listed with its recorded inhibition at 10 µM.
PARAMETER: inhibition at 10 µM

[
  {
    "MOLECULE": "C=C1[C@H](CO)[C@H](O)C[C@@H]1n1cnc2c(OCCCCCCCCCC(=O)N[C@H](C(=O)N3C[C@H](O)C[C@H]3C(=O)NCc3ccc(-c4scnc4C)cc3)C(C)(C)C)nc(N)nc21 [Compound I]",
    "ASSAY VALUE": "> 60%"
  },
  {
    "MOLECULE": "C=C1[C@H](CO)[C@H](O)C[C@@H]1n1cnc2c(OCCN3CCN(CCCC(=O)N[C@H](C(=O)N4C[C@H](O)C[C@H]4C(=O)NCc4ccc(-c5scnc5C)cc4)C(C)(C)C)CC3)nc(N)nc21 [II]",
    "ASSAY VALUE": "> 60%"
  },
  {
    "MOLECULE": "C=C1[C@H](CO)[C@H](O)C[C@@H]1n1cnc2c(OCCOCCOCCCC(=O)N[C@H](C(=O)N3C[C@H](O)C[C@H]3C(=O)NCc3ccc(-c4scnc4C)cc3)C(C)(C)C)nc(N)nc21 [Compound V]",
    "ASSAY VALUE": "30 to 60%"
  },
  {
    "MOLECULE": "C=C1[C@H](CNC(=O)CN2CCN(CCCC(=O)N[C@H](C(=O)N3C[C@H](O)C[C@H]3C(=O)NCc3ccc(-c4scnc4C)cc3)C(C)(C)C)CC2)[C@H](O)C[C@@H]1n1cnc2c(=O)[nH]c(N)nc21 [Compound VII]",
    "ASSAY VALUE": "30 to 60%"
  },
  {
    "MOLECULE": "C=C1[C@H](CNC(=O)CCCCCCCCC(=O)N[C@H](C(=O)N2C[C@H](O)C[C@H]2C(=O)NCc2ccc(-c3scnc3C)cc2)C(C)(C)C)[C@H](O)C[C@@H]1n1cnc2c(=O)[nH]c(N)nc21 [Compound VI]",
    "ASSAY VALUE": "> 60%"
  },
  {
    "MOLECULE": "C=C1[C@H](CO)[C@H](O)C[C@@H]1n1cnc2c(OCCN3CCC(CCCC(=O)N[C@H](C(=O)N4C[C@H](O)C[C@H]4C(=O)NCc4ccc(-c5scnc5C)cc4)C(C)(C)C)CC3)nc(N)nc21 [III]",
    "ASSAY VALUE": "> 60%"
  },
  {
    "MOLECULE": "C=C1[C@H](CNC(=O)CN2CCC(OCCC(=O)N[C@H](C(=O)N3C[C@H](O)C[C@H]3C(=O)NCc3ccc(-c4scnc4C)cc3)C(C)(C)C)CC2)[C@H](O)C[C@@H]1n1cnc2c(=O)[nH]c(N)nc21 [IX]",
    "ASSAY VALUE": "> 60%"
  },
  {
    "MOLECULE": "C=C1[C@H](CNC(=O)CN2CCC(CCCC(=O)N[C@H](C(=O)N3C[C@H](O)C[C@H]3C(=O)NCc3ccc(-c4scnc4C)cc3)C(C)(C)C)CC2)[C@H](O)C[C@@H]1n1cnc2c(=O)[nH]c(N)nc21 [VIII]",
    "ASSAY VALUE": "> 60%"
  }
]

----------
Below, each entry is listed with its recorded inhibition at 3 µM.
target: HBV P protein (DNA polymerase) (Hepatitis B virus genotype D subtype ayw, UniProt P03156); construct: expressed in transfected cells; host or cells: Huh7-LgBiT cells transduced with pLVX-HBP-Puro lentivirus (Huh7-HBP); test: Degradation of HBV P protein (DNA polymerase) in Huh7-HBP cell line (Nano-Glo HiBiT/LgBiT luminescence); format: cell-based; settings: 3000 nM, read-out: Degradation activity of DNA polymerase at different concentrations of compounds

[
  {
    "COMPOUND": "C=C1[C@H](CNC(=O)CCCCCCCCC(=O)N[C@H](C(=O)N2C[C@H](O)C[C@H]2C(=O)NCc2ccc(-c3scnc3C)cc2)C(C)(C)C)[C@H](O)C[C@@H]1n1cnc2c(=O)[nH]c(N)nc21 [Compound VI]",
    "TARGET OR TEST SYSTEM": "HBV P protein (DNA polymerase) (Hepatitis B virus genotype D subtype ayw, UniProt P03156)",
    "inhibition at 3 µM": "> 70%"
  },
  {
    "COMPOUND": "C=C1[C@H](CNC(=O)CN2CCC(CCCC(=O)N[C@H](C(=O)N3C[C@H](O)C[C@H]3C(=O)NCc3ccc(-c4scnc4C)cc3)C(C)(C)C)CC2)[C@H](O)C[C@@H]1n1cnc2c(=O)[nH]c(N)nc21 [VIII]",
    "TARGET OR TEST SYSTEM": "HBV P protein (DNA polymerase) (Hepatitis B virus genotype D subtype ayw, UniProt P03156)",
    "inhibition at 3 µM": "30 to 70%"
  },
  {
    "COMPOUND": "C=C1[C@H](CO)[C@H](O)C[C@@H]1n1cnc2c(OCCN3CCC(CCCC(=O)N[C@H](C(=O)N4C[C@H](O)C[C@H]4C(=O)NCc4ccc(-c5scnc5C)cc4)C(C)(C)C)CC3)nc(N)nc21 [III]",
    "TARGET OR TEST SYSTEM": "HBV P protein (DNA polymerase) (Hepatitis B virus genotype D subtype ayw, UniProt P03156)",
    "inhibition at 3 µM": "30 to 70%"
  },
  {
    "COMPOUND": "C=C1[C@H](CO)[C@H](O)C[C@@H]1n1cnc2c(OCCOCCOCCCC(=O)N[C@H](C(=O)N3C[C@H](O)C[C@H]3C(=O)NCc3ccc(-c4scnc4C)cc3)C(C)(C)C)nc(N)nc21 [Compound V]",
    "TARGET OR TEST SYSTEM": "HBV P protein (DNA polymerase) (Hepatitis B virus genotype D subtype ayw, UniProt P03156)",
    "inhibition at 3 µM": "30 to 70%"
  },
  {
    "COMPOUND": "C=C1[C@H](CO)[C@H](O)C[C@@H]1n1cnc2c(OCCN3CCN(CCCC(=O)N[C@H](C(=O)N4C[C@H](O)C[C@H]4C(=O)NCc4ccc(-c5scnc5C)cc4)C(C)(C)C)CC3)nc(N)nc21 [II]",
    "TARGET OR TEST SYSTEM": "HBV P protein (DNA polymerase) (Hepatitis B virus genotype D subtype ayw, UniProt P03156)",
    "inhibition at 3 µM": "30 to 70%"
  },
  {
    "COMPOUND": "C=C1[C@H](CO)[C@H](O)C[C@@H]1n1cnc2c(OCCCCCCCCCC(=O)N[C@H](C(=O)N3C[C@H](O)C[C@H]3C(=O)NCc3ccc(-c4scnc4C)cc3)C(C)(C)C)nc(N)nc21 [Compound I]",
    "TARGET OR TEST SYSTEM": "HBV P protein (DNA polymerase) (Hepatitis B virus genotype D subtype ayw, UniProt P03156)",
    "inhibition at 3 µM": "> 70%"
  },
  {
    "COMPOUND": "C=C1[C@H](CNC(=O)CN2CCN(CCCC(=O)N[C@H](C(=O)N3C[C@H](O)C[C@H]3C(=O)NCc3ccc(-c4scnc4C)cc3)C(C)(C)C)CC2)[C@H](O)C[C@@H]1n1cnc2c(=O)[nH]c(N)nc21 [Compound VII]",
    "TARGET OR TEST SYSTEM": "HBV P protein (DNA polymerase) (Hepatitis B virus genotype D subtype ayw, UniProt P03156)",
    "inhibition at 3 µM": "30 to 70%"
  }
]
